Task for the reader: assign each of the following compounds its reported pIC50.
- Experimental Target: CYP11A1 (Homo sapiens, UniProt P05108)
- Construct: host or cells: NCI-H295R human adrenocortical cancer cells
- Sequence (P05108 40-521): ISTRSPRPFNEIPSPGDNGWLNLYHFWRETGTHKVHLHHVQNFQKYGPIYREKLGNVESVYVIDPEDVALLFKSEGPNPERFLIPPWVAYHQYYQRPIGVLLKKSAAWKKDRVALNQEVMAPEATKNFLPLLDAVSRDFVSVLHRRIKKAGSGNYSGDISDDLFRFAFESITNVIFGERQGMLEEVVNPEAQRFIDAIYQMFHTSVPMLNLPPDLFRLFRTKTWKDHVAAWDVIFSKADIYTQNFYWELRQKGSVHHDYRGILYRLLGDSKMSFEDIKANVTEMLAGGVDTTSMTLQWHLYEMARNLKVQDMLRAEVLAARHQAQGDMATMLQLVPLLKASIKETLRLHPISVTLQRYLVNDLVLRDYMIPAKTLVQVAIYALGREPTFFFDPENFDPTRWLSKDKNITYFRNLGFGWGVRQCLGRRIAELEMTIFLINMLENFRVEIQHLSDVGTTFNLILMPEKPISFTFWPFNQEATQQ
- Test Method Notes: Pregnenolone synthesis inhibition in NCI-H295R cells (pregnenolone ELISA of culture supernatant)
- Assay type: cell-based
- Test Parameters: 24 hours incubation, pregnenolone in culture supernatant by ELISA
Numbers only, as −log10 of the molar value.

{"columns": ["Cpd Smiles", "Experimental Target", "pIC50"],
 "data": [
  ["Cn1c(CN2Cc3ccccc3C2)ccc(OCC2CCN(S(=O)(=O)C3COC3)CC2)c1=O", "CYP11A1 (Homo sapiens, UniProt P05108)", 8.71]
]}

Consider the following items and state reported pIC50 for each.
1. [2H]C([2H])([2H])n1c(CN2Cc3ccccc3C2)ccc(OCC2CCN(S(=O)(=O)C(F)(F)F)CC2)c1=O
2. [2H]C([2H])([2H])n1c(CN2Cc3ccc(F)cc3C2)ccc(OCC2CCN(S(=O)(=O)C3CC3)CC2)c1=O

1. 8.99
2. 8.71

Consider the following items and state reported pIC50 for each.
1. [2H]C([2H])([2H])n1c(CN2Cc3ccccc3C2)ccc(OCC2CCN(S(C)(=O)=O)CC2)c1=O
2. CCn1c(CN2Cc3ccccc3C2)ccc(OCC2CCN(S(N)(=O)=O)CC2)c1=O
3. Cn1c(CN2Cc3ccccc3C2)ccc(OCC2CCN(S(=O)(=O)C3CC3)CC2)c1=O

1. 8.43
2. 8.93
3. 8.65

* * *

- Experimental Target: CYP11A1 (Homo sapiens)
- Construct: host or cells: NCI-H295R human adrenocortical cancer cells
- Test Method Notes: Pregnenolone synthesis inhibition in NCI-H295R cells (pregnenolone ELISA of culture supernatant)
- Format: cell-based
- Test Parameters: 24 hours incubation, pregnenolone in culture supernatant by ELISA
- Protocol: Conversion of cholesterol into pregnenolone is a first rate-limiting step in the synthesis of all steroid hormones in vertebrates. […] The ability of different compounds to inhibit pregnenolone biosynthesis was determined by detecting the concentration of pregnenolone (Abnova pregnenolone ELISA kit, KA1912) using enzyme-linked immunosorbent assay (ELISA), so as to detect the ability of the compounds to inhibit CYP11A1. […]
Measured Metric: log10 of IC50 (log10 of the value in nM)
Base-10 log of IC50, unit nM.

Example cases with answers are listed next.
{"columns": ["Cpd Smiles", "Data Value"],
 "data": [
  ["CCn1c(CN2Cc3ccccc3C2)ccc(OCC2CCN(S(C)(=O)=O)CC2)c1=O", 0.19],
  ["Cn1c(CN2Cc3ccc(F)cc3C2)ccc(OCC2CCN(S(=O)(=O)C3COC3)CC2)c1=O", 0.55],
  ["CN(C)S(=O)(=O)N1CCC(COc2ccc(CN3Cc4ccc(C(F)(F)F)cc4C3)n(C)c2=O)CC1", 0.94]
]}

Dear reader, for each entry below, please note its log10 of IC50.
1. Cn1c(CN2Cc3ccc(C(F)(F)F)cc3C2)ccc(OCC2CCN(S(=O)(=O)C3COC3)CC2)c1=O
2. CN(C)S(=O)(=O)N1CCC(COc2ccc(CN3Cc4ccc(F)cc4C3)n(C)c2=O)CC1
3. [2H]C([2H])([2H])n1c(CN2Cc3ccc(F)cc3C2)ccc(OCC2CCN(S(C)(=O)=O)CC2)c1=O
4. CS(=O)(=O)N1CCC(COc2ccc(CN3Cc4ccccc4C3)[nH]c2=O)CC1
5. Cn1c(CN2Cc3ccc(C(F)(F)F)cc3C2)ccc(OCC2CCN(S(=O)(=O)C3CC3)CC2)c1=O

1. 0.55
2. 0.30
3. 0.69
4. 2.35
5. 0.34

# return log10 of IC50 for each item in the list
1. CC(=O)N1CCC(COc2ccc(CN3Cc4ccccc4C3)n(C)c2=O)CC1
2. Cn1c(CN2Cc3ccc(C(F)(F)F)cc3C2)ccc(OCC2CCN(S(C)(=O)=O)CC2)c1=O
3. Cn1c(CN2Cc3ccccc3C2)ccc(OCC2CCN(S(C)(=O)=O)CC2)c1=O

1: 0.97; 2: 1.08; 3: 0.62

The reported numbers originate from patent EP4644384A1.
